assay-summary: Oral bioavailability in rat
Format: ADME, organism-based
setup-conditions: in vivo
Each entry below carries its reported bioavailability.
Supply the numeric figure in %, leaving out any unit text.

Look over these answered cases.
| compound | bioavailability [%] |
| --- | --- |
| c1cc([C@H]2CC[C@]3(CC2)OOC2(O3)C3CC4CC(C3)CC2C4)ccc1OCCN1CCOCC1 (stereo not given in full) | 76 |
| N#Cc1cc(-c2ccoc2)c2ccc(OCc3cccc(C4(O)CCOCC4)n3)cc2c1 | 26 |
| C[S+]([O-])c1ccc(-c2nc(-c3ccncc3)c(-c3ccc(F)cc3)[nH]2)cc1 (stereo not given) | 10 |
| N#Cc1cc(-c2ccoc2)c2ccc(OCc3cccc(C4(O)CC5COC(C4)O5)n3)cc2c1 (stereo not given) | 26 |
| C[C@]1(NC(=O)N2CCOCC2)CO[C@H](c2nc(-c3ccncc3)c(-c3ccc(F)cc3)[nH]2)OC1 | 50 |
| CCC[C@@H](NC(=O)N1C(=O)C(CC)(CC)[C@@H]1Oc1ccc(C(=O)N2CCN(C)CC2)cc1)c1ccc2c(c1)OCO2 | 65 |
| CN1CCN(C2CCN(C(=O)CC3CCC4(CC3)OOC3(OO4)C4CC5CC(C4)CC3C5)CC2)CC1 (stereo not given) | 38 |
| COC(=O)N[C@H](C(=O)N1CCC[C@H]1c1nc(-c2ccc3c(c2)O[C@@H](c2ccccc2)n2c-3cc3cc(-c4c[nH]c([C@@H]5CCCN5C(=O)[C@@H](NC(=O)OC)C(C)C)n4)ccc32)c[nH]1)C(C)C | 9 |
| N#Cc1cc(-c2ccoc2)c2ccc(OCc3cccc(C4(O)CC5COC(C4)O5)c3)cc2c1 (stereo not given) | 10 |
| CC(C)(N)CNC(=O)CC1CCC2(CC1)OOC1(O2)C2CC3CC(C2)CC1C3 (stereo not given) | 35 |

-- ask Please look up its bioavailability: C[C@]1(NC(=O)c2ccccc2)CO[C@H](c2nc(-c3ccncc3)c(-c3ccc(F)cc3)[nH]2)OC1
-- reply 64

-- ask Please look up its bioavailability: FC1CCN(CCc2ccc(C3CCC4(CC3)OOC3(OO4)C4CC5CC(C4)CC3C5)cc2)CC1 (stereo not given)
-- reply 62

-- ask Please look up its bioavailability: CCC[C@@H](NC(=O)N1C(=O)C(CC)(CC)[C@@H]1Oc1ccc(CC(=O)O)cc1)c1ccc(C)cc1
-- reply 100

* * *

assay-summary: Oral bioavailability in dog
Assay type: ADME, organism-based, Canis lupus familiaris
setup-conditions: in vivo
Each entry below carries its reported bioavailability.
Supply the numeric figure in %, leaving out any unit text.

Look over these answered cases.
| compound | experimental-value |
| --- | --- |
| C[C@@H](c1c[nH]c2ccccc12)[C@H](C(=O)N[C@@H](CCCCN)C(=O)OC(C)(C)C)N1CCN(CCCc2ccccc2)C1=O | 5 |
| COC(=O)N[C@H](C(=O)N1CCC[C@H]1c1nc(-c2ccc3c(c2)O[C@@H](c2ccccc2)n2c-3cc3cc(-c4c[nH]c([C@@H]5CCCN5C(=O)[C@@H](NC(=O)OC)C(C)C)n4)ccc32)c[nH]1)C(C)C | 35 |
| C[C@@H](c1c[nH]c2ccccc12)[C@H](C(=O)NC[C@H]1OC[C@H](N)CO1)N1CCN(CCC(c2ccccc2)c2ccccc2)C1=O | 64 |

-- ask Please look up its bioavailability: C[C@@H](c1c[nH]c2ccccc12)[C@H](C(=O)NC[C@H]1OC[C@H](N)CO1)N1CCN(CCCc2ccccc2)C1=O
-- reply 19

-- ask Please look up its bioavailability: FC1CCN(CCc2ccc(C3CCC4(CC3)OOC3(OO4)C4CC5CC(C4)CC3C5)cc2)CC1 (stereo unspecified)
-- reply 40

-- ask Please look up its bioavailability: N#Cc1cc(-c2ccoc2)c2ccc(OCc3cccc(C4(O)CC5COC(C4)O5)n3)cc2c1 (stereo unspecified)
-- reply 73

* * *

Assay read-out pIC50; system under study: Sodium-dependent dopamine transporter (Homo sapiens).
Sequence (Q01959 whole entry): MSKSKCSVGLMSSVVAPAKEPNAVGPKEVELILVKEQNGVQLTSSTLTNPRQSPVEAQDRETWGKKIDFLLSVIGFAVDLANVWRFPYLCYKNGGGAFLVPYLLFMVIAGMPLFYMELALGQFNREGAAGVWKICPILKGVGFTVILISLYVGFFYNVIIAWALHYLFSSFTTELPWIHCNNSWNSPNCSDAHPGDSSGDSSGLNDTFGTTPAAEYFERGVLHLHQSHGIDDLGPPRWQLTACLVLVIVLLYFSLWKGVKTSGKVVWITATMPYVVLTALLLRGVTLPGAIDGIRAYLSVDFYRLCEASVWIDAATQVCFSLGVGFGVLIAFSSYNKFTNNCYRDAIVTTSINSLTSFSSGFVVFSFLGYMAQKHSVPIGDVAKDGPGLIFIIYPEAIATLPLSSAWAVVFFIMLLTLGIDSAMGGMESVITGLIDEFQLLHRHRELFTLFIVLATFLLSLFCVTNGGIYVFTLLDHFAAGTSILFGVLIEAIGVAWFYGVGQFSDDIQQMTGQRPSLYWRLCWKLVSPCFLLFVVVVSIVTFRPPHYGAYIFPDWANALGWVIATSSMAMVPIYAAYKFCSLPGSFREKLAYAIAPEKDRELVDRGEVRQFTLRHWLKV
Scale explanation: pIC50 corresponds to minus log10 of a concentration expressed in moles per litre.

-- ask Provide the documented pIC50 with Sodium-dependent dopamine transporter (Homo sapiens) as the system for COC(=O)[C@H]1[C@@H](c2ccc(Cl)c(Cl)c2)C[C@@H]2CC[C@H]1N2C
-- reply 8.96

-- ask Provide the documented pIC50 with Sodium-dependent dopamine transporter (Homo sapiens) as the system for COC(=O)[C@H]1[C@@H](c2ccc(Cl)c(Cl)c2)C[C@@H]2CC[C@H]1O2
-- reply 8.49

* * *

assay-summary: Drug degradation in citrate buffer at pH 8.5 measured after 18 hrs
Type: physicochemical
setup-conditions: read-out: Drug degradation
Each entry below carries its reported degraded at 18 h.
Answer format reminder: number followed by unit.

| molecule | degraded at 18 h |
| --- | --- |
| CC(=O)NC[C@H]1CN(c2ccc(N3CCOCC3)c(F)c2)C(=O)O1 [LINEZOLID] | 40% |

Now turn to the next molecule.
-- ask Please look up its degraded at 18 h: COc1ccc(C2=CN(CNC(C)=O)CC2=O)cc1
-- reply 40%

* * *

assay-summary: Solubility of the compound at pH 7 incubated for 12 hrs by UPLC analysis
Assay type: physicochemical
setup-conditions: buffer, pH 7, 12 h
metric: solubility

| mol | solubility |
| --- | --- |
| O=C(NCc1c(F)cc(F)cc1F)c1cn2c(c(O)c1=O)C(=O)N1[C@H]3CC[C@H](C3)O[C@@H]1C2 | 119 µg/mL |

Now turn to the next molecule.
-- ask Please look up its solubility: C[C@@H]1CCO[C@H]2Cn3cc(C(=O)NCc4ccc(F)cc4F)c(=O)c(O)c3C(=O)N12
-- reply 53 µg/mL

* * *

Each entry below carries its reported K.
assay-summary: Aqueous stability of the compound assessed as acid-catalyzed decomposition by measuring rate constant
Assay type: physicochemical
setup-conditions: buffer
Supply the numeric figure in min⁻¹, leaving out any unit text.

Look over these answered cases.
| compound | unit-string | K |
| --- | --- | --- |
| COc1ccc(C2OCCS2)cc1 (stereo not given) | min⁻¹ | 0.778 |
| c1ccc(C2OCCS2)cc1 (stereo not given) | min⁻¹ | 0.0194 |
| Clc1ccc(C2OCCS2)cc1 (stereo not given) | min⁻¹ | 0.00978 |
| Cc1ccc(C2OCCS2)cc1 (stereo not given) | min⁻¹ | 0.146 |

Now turn to the next compound.
-- ask Please look up its K: O=[N+]([O-])c1ccc(C2OCCS2)cc1 (stereo not given)
-- reply 0.00048

* * *

Each entry below carries its reported Emax at 15 µM.
test-target: UniProtKB O75469
Sequence (O75469 whole entry): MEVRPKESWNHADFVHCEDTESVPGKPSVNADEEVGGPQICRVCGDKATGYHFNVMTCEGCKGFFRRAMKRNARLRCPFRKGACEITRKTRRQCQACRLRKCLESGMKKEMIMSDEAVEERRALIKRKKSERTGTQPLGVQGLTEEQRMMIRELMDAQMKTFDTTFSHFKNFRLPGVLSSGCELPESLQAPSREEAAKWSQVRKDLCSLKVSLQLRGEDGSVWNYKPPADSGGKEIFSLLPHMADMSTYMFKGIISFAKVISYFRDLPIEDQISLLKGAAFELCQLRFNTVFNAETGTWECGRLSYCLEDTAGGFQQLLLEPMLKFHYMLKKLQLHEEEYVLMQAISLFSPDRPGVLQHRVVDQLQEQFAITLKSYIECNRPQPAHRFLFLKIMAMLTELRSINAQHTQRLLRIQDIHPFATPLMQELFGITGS
assay-summary: Activation of PXR (unknown origin) in human DPX2 cells assessed as maximal efficacy at 15 uM relative to control
Assay type: cell-based
Supply the numeric figure in %, leaving out any unit text.

-- ask Please look up its Emax at 15 µM: O=C(NCc1c(F)cc(F)cc1F)c1cn2c(c(O)c1=O)C(=O)N1[C@H]3CC[C@H](C3)O[C@@H]1C2
-- reply 18

-- ask Please look up its Emax at 15 µM: C[C@@H]1CCO[C@H]2Cn3cc(C(=O)NCc4ccc(F)cc4F)c(=O)c(O)c3C(=O)N12
-- reply 51

* * *

Each entry below carries its reported half-life.
assay-summary: Half-life in po dosed rat
Assay type: ADME, organism-based
setup-conditions: in vivo
Supply the numeric figure in min, leaving out any unit text.

| molecule | unit-string | experimental-value |
| --- | --- | --- |
| CC(C)(N)CNC(=O)CC1CCC2(CC1)OOC1(O2)C2CC3CC(C2)CC1C3 (configuration not stated) | min | 60 |

Now turn to the next molecule.
-- ask Please look up its half-life: C[C@H]1[C@@H](O)O[C@@H]2O[C@@]3(C)CC[C@H]4[C@H](C)CC[C@@H]1[C@@]24OO3
-- reply 30

* * *

assay-summary: Stability of the compound in HCL solution assessed as compound hydrolysis by measuring relative rate constant by NMR analysis
Assay type: physicochemical
setup-conditions: buffer
Each entry below carries its reported K.

| mol | experimental-value |
| --- | --- |
| c1ccc2c(c1)COC1(CCCCC1)O2 | 2.1 10^4No_unit |
| CCC1OCCCO1 | 1 10^2No_unit |
| C1CCC2(CC1)OCCO2 | 5.4 10^5No_unit |
| c1ccc2c(c1)OC1(CCCCC1)O2 | 1 |
| C1COCOC1 | 1 |
| c1ccc2c(c1)CCOC1(CCCCC1)O2 | 1.3 10^8No_unit |
| CCC1(C)OCCCO1 | 3.7 10^6No_unit |
| C1CCC2(CC1)OCCCO2 | 2.1 10^7No_unit |
| COC1(OC)OCCCO1 | 2.6 10^8No_unit |
| c1ccc2c(c1)COC1(CCCCC1)OC2 | 3.3 10^6No_unit |

-- ask Please look up its K: COC1OCCCO1
-- reply 9.3 10^4No_unit

-- ask Please look up its K: COC1(C)OCCCO1
-- reply 2.4 10^9No_unit

Provenance of the data: ChEMBL document CHEMBL5244275
